test system: DiMT protein; test: DiMT enzyme activity, kinetics and substrate specificity (MTase-Glo methyltransferase assay); type: biochemical, Dirofilaria immitis; conditions: SAM as co-substrate
measurementKind: DiMT catalytic activity for methylation of the substrate

- molecule: "NCCc1ccc(O)cc1"
  experimentalTarget: "DiMT protein"
  observedResult: "modest activity"
- molecule: "NCC(O)c1ccc(O)cc1 (stereo not drawn)"
  experimentalTarget: "DiMT protein"
  observedResult: "modest activity"

###

test system: DiMT protein; type: biochemical, Dirofilaria immitis; conditions: read-out: IC 50 (μM ± SEM)
The entries below come with measured IC50 values attached.

Below are worked cases with known answers.
- compound: "CO[C@@]12[C@H](COC(N)=O)C3=C(C(=O)C(C)=C(N)C3=O)N1C[C@H]1[C@@H]2N1C (stereo partly shown)"
  IC50: "300 µM"
- compound: "COc1ccc(-c2c(C)c(C(=O)O)nc(-c3ccc4c(O)c(OC)c5c(c4n3)=NC(C)(C)N=5)c2N)c(O)c1OC"
  IC50: "76.2 µM"
- compound: "COc1cc(C)c2c(c1C=O)Oc1c(c(C)c(O)c3c1C(O)OC3=O)OC2=O (stereo not shown)"
  IC50: "155 µM"

Would you mind telling me what IC50 value was observed for "CO[C@H]1/C=C/O[C@@]2(C)Oc3c(C)c(O)c4c(O)c(cc(O)c4c3C2=O)NC(=O)/C(C)=C\C=C\[C@H](C)[C@H](O)[C@@H](C)[C@@H](O)[C@@H](C)[C@H](OC(C)=O)[C@@H]1C" ?
497 µM

###

The entries below come with measured IC50 values attached.
test system: DiMT protein; format: biochemical, Dirofilaria immitis; conditions: read-out: IC 50 (μM ± SEM)
Give the value in µM but do not write µM after it.

- compoundString: "CO[C@@H]1/C=C/O[C@@]2(C)Oc3c(C)c(O)c4c(c3C2=O)C(=N[C@@H]2CC[C@@H](O)O[C@H]2C)C=C(NC(=O)/C(C)=C\\C(=O)[C@@H]2C[C@@H]2[C@H](O)[C@@H](C)[C@@H](O)[C@@H](C)[C@H](OC(C)=O)[C@@H]1C)C4=O"
  measurementKind: "IC50"
  observedResult: 140

Would you mind telling me what IC50 value was observed for "CO[C@@H]1/C=C\O[C@]2(C)Oc3c(C)c(O)c4c(O)c(c(CN(C)C)c(O)c4c3C2=O)NC(=O)/C(C)=C\C=C[C@@H](C)[C@@H](O)[C@H](C)[C@@H](O)[C@H](C)[C@H](OC(C)=O)[C@@H]1C" ?
62.1

Would you mind telling me what IC50 value was observed for "O=c1c(O)cccc2cc(O)c(O)c(O)c12" ?
25.2

###

system: DiMT protein; experiment: DiMT enzyme activity, kinetics and substrate specificity (MTase-Glo methyltransferase assay); assay type: biochemical, Dirofilaria immitis; details: DiMT 90 ng/μL, SAM 40 μM, substrate 300 μM
measurementKind: Mean RLU (RLU)
Give the value in RLU but do not write RLU after it.

Below are worked cases with known answers.
- molecule: "NCCc1ccc(O)cc1 [Tyramine]"
  observedResult: 1001.7
- molecule: "OCCS [2-Mercaptoethanol]"
  observedResult: -2592.7
- molecule: "NCC(O)c1ccc(O)cc1 (stereo not drawn) [Octopamine]"
  observedResult: 1996.7
- molecule: "NCCc1ccc(O)c(O)c1 [Dopamine]"
  observedResult: 5806.3
- molecule: "NCCc1c[nH]cn1 [Histamine]"
  observedResult: 167.3

Would you mind telling me what Mean RLU value was observed for NCCOP(=O)(O)O [Phosphoethanolamine] ?
-1783.7
